Hey, just so you know, these numbers are from PubChem BioAssay (NCI).

# Test system: RXF 393 renal
# experimental details: NCI tumour cell line growth inhibition, 48 h
readout name: log10(TGI) (log10 of the value in µM)

INSERT INTO measurements (compound, target_under_test, readout_name, endpoint_value) VALUES
  ('c1ccc2c(-c3cnn4cc(-c5ccc(N6CCNCC6)cc5)cnc34)ccnc2c1', 'RXF 393 renal', 'log10(TGI)', 0.39),
  ('CNC(C)[C@H]1CCC2C3CCC4C[C@@H](N(C)C(=O)c5ccccc5)CC[C@]4(C)C3CC[C@@]21C (stereo not given in full)', 'RXF 393 renal', 'log10(TGI)', 0.63),
  ('COc1cc2oc(-c3cccc(C(=O)Nc4ccc(C)cc4)c3)cc(=O)c2c(OC)c1OC', 'RXF 393 renal', 'log10(TGI)', 0.77),
  ('O=C(/C=C/c1ccccc1Br)c1ccccc1', 'RXF 393 renal', 'log10(TGI)', 1.30),
  ('CCOC(=O)Nc1ccc(C(=O)/C=C/c2ccccc2)cc1', 'RXF 393 renal', 'log10(TGI)', 1.69),
  ('Cc1nc2ccccc2c(/C=C/c2ccccc2)c1C(=O)/C=C/c1ccc(Cl)cc1', 'RXF 393 renal', 'log10(TGI)', 0.42);
